Where do the numbers come from? From paper PMC11626521.

Test system: HT-29
ASSAY OVERVIEW: anti-proliferation assay
Assay type: cell-based, human
MEASUREMENT CONDITIONS: read-out: IC50 HT-29; 72 h treatment, CCK8
QUANTITY KIND: pIC50
Give bare numbers, as −log10 of the molar value.

// query pIC50 value for entry O=c1[nH]cc(F)c(=O)[nH]1 5.34

====

Tested on: GES-1
ASSAY OVERVIEW: anti-proliferation assay
Type: cell-based
MEASUREMENT CONDITIONS: read-out: IC50 GES-1; normal human gastric mucosa cell line, 72 h treatment, CCK8
QUANTITY KIND: pIC50
Answers are plain numbers, as −log10 of the molar value.

I'd like to know its pIC50. The molecule in question is O=c1[nH]cc(F)c(=O)[nH]1 5.39
